test system: T1, PSMA Fab
T1 construct: also called Anti-PSMA Fab; 006 PSMA Fab
assay summary: phage ELISA; biotinylated PSMA Fab on neutravidin plate pre-incubated with PSMA antigen as competitor, anti-M13 HRP detection;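 note: crude clonal phage supernatants tested, compared against control wells pre-incubated with blocking buffer only, without PSMA antigen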
readout name: Phage binding ELISA signal, Anti-PSMA Fab in the presence of PSMA antigen

binder	endpoint result
AANWCTPPWMCLGF (Peptide-180 library clone, tested as clonal phage supernatant) [Phage-2359]	0.0888
DGVWCVPQWMCDGY (Peptide-180 library clone, tested as clonal phage supernatant) [Phage-2368]	0.0722
EEKWCRPAWMCEHA (Peptide-180 library clone, tested as clonal phage supernatant) [Phage-2360]	0.0625
INKWCIPEWMCAAM (Peptide-180 library clone, tested as clonal phage supernatant) [Phage-2366]	0.0668
